# assay.system: Nav1.8 (Mus musculus, UniProt Q6QIY3)
# Construct: The Nav1.8 current was recorded in Nav1.9−/− DRG neurons; endogenous in cells
# Sequence (Q6QIY3 whole entry): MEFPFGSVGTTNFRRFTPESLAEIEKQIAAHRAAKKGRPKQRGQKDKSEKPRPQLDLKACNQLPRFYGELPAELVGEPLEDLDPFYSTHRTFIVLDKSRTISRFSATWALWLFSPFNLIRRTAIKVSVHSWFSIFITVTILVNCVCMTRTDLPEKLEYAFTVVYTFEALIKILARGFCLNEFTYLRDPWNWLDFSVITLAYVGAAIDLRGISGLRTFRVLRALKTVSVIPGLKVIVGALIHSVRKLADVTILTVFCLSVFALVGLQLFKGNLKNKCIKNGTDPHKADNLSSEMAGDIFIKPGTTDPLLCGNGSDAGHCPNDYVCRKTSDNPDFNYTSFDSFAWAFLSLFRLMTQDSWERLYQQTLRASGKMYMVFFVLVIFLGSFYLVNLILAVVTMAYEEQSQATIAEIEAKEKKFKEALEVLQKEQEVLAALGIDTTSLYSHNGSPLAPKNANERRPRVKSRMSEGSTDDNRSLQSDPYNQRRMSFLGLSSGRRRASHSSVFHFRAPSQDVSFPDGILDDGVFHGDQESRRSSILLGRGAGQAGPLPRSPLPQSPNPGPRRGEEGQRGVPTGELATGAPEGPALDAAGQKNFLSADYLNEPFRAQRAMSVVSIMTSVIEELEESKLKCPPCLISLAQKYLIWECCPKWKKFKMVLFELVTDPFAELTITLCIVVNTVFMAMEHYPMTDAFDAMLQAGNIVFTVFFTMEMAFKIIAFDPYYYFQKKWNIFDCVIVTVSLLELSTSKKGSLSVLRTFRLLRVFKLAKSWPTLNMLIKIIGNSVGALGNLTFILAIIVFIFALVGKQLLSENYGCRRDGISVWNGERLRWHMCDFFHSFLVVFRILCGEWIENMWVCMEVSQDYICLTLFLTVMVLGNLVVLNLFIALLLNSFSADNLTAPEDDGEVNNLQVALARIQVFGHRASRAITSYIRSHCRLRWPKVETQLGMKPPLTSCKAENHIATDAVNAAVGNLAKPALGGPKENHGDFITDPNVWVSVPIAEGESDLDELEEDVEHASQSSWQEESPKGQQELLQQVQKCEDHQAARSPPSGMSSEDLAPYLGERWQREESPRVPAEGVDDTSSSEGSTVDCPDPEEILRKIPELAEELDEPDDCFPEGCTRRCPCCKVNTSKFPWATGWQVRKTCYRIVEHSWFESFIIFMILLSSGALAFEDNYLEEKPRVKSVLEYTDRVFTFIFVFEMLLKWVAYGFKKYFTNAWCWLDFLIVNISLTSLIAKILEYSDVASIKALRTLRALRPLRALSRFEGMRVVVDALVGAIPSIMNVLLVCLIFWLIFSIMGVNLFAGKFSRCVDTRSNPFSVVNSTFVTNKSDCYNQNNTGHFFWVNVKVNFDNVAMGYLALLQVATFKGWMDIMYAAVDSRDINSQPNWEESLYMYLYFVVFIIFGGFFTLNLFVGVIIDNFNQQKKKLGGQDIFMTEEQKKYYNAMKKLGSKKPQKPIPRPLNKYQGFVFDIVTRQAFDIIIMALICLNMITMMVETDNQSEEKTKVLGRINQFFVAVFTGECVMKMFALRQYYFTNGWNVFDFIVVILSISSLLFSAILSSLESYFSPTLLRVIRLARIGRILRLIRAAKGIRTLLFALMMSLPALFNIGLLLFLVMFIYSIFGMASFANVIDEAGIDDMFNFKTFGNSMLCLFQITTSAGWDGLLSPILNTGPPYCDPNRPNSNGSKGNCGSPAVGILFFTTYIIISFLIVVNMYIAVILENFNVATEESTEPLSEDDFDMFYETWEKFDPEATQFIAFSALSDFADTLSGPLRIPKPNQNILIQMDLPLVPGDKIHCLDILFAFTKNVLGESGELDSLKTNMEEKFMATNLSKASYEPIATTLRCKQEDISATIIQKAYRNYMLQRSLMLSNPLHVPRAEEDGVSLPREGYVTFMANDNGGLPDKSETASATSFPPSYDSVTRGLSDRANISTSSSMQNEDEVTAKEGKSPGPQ
# assay.explanation: Whole-cell patch-clamp of sodium currents in Nav1.9-/- DRG neurons
# experimental.conditions: holding potential −100 mV, cumulative 1 μM-1 mM; read-out: IC50, block of Nav1.8 current
parameter: IC50 (µM)
Kindly answer with a numeric value in µM, unit omitted.

The molecule CN(C)CCC=C1c2ccccc2CCc2ccccc21 [amitriptyline, Amitriptyline] , tested on Nav1.8 (Mus musculus, UniProt Q6QIY3), showed IC50 of 4.25

---

# Test system: Aδ fibers
# assay.explanation: Ex vivo single unit recordings, skin-saphenous nerve preparation
# Type: cell-based
# experimental.conditions: Mus musculus, 10 min, skin superfusion 10 min, 10-100 μM; read-out: IC50, inhibition of mechanically induced firing
parameter: IC50

The compound CN(C)CCC=C1c2ccccc2CCc2ccccc21 , tested on Aδ fibers, showed IC50 of ~16 µM
